- test target: NK1 (Homo sapiens, UniProt P25103)
- Sequence (P25103 whole entry): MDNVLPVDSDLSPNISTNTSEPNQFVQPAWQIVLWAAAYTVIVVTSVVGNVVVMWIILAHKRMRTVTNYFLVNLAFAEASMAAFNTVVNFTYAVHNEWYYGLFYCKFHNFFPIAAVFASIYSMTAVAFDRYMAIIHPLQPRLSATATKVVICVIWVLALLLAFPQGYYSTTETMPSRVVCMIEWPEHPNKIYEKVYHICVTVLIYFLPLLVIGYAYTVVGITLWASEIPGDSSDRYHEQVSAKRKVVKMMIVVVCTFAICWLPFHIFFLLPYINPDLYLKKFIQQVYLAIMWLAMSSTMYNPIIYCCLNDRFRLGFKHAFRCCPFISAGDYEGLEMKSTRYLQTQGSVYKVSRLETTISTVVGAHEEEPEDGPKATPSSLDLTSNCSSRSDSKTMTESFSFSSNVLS
- experiment notes: Signal transduction (ST), intracellular Ca++ (FLIPR), NK1 antagonism
- Assay type: cell-based
measure name: pIC50 NK1
Reply briefly: the number, and no unit.

Please review the entries below; each comes with its answer.
O=C(Nc1ccc(Cl)cc1)N1CCCC(N2CCN([C@H]3CCN(C(=O)c4cc(C(F)(F)F)cc(C(F)(F)F)c4)[C@H](Cc4ccccc4)C3)CC2)C1 (stereo partly shown) :: 8.0
O=C(c1cc(C(F)(F)F)cc(C(F)(F)F)c1)N1CCC(N2CCN(C3CCCNC3)CC2)CC1Cc1ccccc1 (single isomer, unassigned) :: 7.3
O=C(c1cc(C(F)(F)F)cc(C(F)(F)F)c1)N1CC[C@H](N2CCN(C3CCCN(S(=O)(=O)c4ccc(Cl)s4)C3)CC2)C[C@H]1Cc1ccccc1 (stereo partly shown) :: 7.5

For the compound O=C(c1cc(C(F)(F)F)cc(C(F)(F)F)c1)N1CC[C@H](N2CCN(C3CCCN(S(=O)(=O)c4occc4COCc4ccccc4)C3)CC2)C[C@H]1Cc1ccccc1 (stereo partly shown) , give its measured pIC50 NK1 value.
6.8

Recall and state the measured pIC50 NK1 for COc1ccccc1S(=O)(=O)N1CCCC(N2CCN([C@H]3CCN(C(=O)c4cc(C(F)(F)F)cc(C(F)(F)F)c4)[C@H](Cc4ccccc4)C3)CC2)C1 (stereo partly shown) .
8.0

Tell us which pIC50 NK1 value is on record for O=C(c1cc(C(F)(F)F)cc(C(F)(F)F)c1)N1CC[C@H](N2CCN(C3CCCN(S(=O)(=O)c4cccs4)C3)CC2)C[C@H]1Cc1ccccc1 (stereo partly shown)
7.8

Using known records, supply pIC50 NK1 for Cc1cc(C)cc(C(=O)N2CCCC(N3CCN([C@@H]4CCN(C(=O)c5cc(C(F)(F)F)cc(C(F)(F)F)c5)[C@H](Cc5ccccc5)C4)CC3)C2)c1.O=C(O)/C=C/C(=O)O.O=C(O)/C=C/C(=O)O (stereo partly shown)
6.3

* * *

- test target: NK1 (Homo sapiens)
- experiment notes: Signal transduction (ST), intracellular Ca++ (FLIPR), NK1 antagonism
- Format: cell-based
- condition context: read-out: pIC50 NK1 (converted)
Reported IC50 values are given for each entry in this list.
Only the number, expressed in nM, is required.

O=C(c1cc(F)ccc1F)N1CCCC(N2CCN([C@H]3CCN(C(=O)c4cc(C(F)(F)F)cc(C(F)(F)F)c4)[C@H](Cc4ccccc4)C3)CC2)C1 (some centres unmarked) :: 25.1
O=C(c1cccs1)N1CCCC(N2CCN([C@H]3CCN(C(=O)c4cc(C(F)(F)F)cc(C(F)(F)F)c4)[C@H](Cc4ccccc4)C3)CC2)C1 (some centres unmarked) :: 31.6
O=C(c1cc(C(F)(F)F)cc(C(F)(F)F)c1)N1CC[C@H](N2CCN(C3CCCN(S(=O)(=O)c4cccc(O)c4)C3)CC2)C[C@H]1Cc1ccccc1 (some centres unmarked) :: 10
O=C(c1cc(C(F)(F)F)cc(C(F)(F)F)c1)N1CC[C@H](N2CCCN(C3CCCN(S(=O)(=O)c4cccs4)C3)CC2)C[C@H]1Cc1ccccc1 (some centres unmarked) :: 100
O=C(C1CCCC1)N1CCCC(N2CCN(C3CCN(C(=O)c4cc(C(F)(F)F)cc(C(F)(F)F)c4)C(Cc4ccccc4)C3)CC2)C1 (centres unmarked) :: 7.94
O=C(c1cc(C(F)(F)F)cc(C(F)(F)F)c1)N1CC[C@H](N2CCN(C3CCCN(S(=O)(=O)c4ccc(O)c(F)c4)C3)CC2)C[C@H]1Cc1ccccc1 (some centres unmarked) :: 15.8
O=C(c1cccc(O)c1)N1CCCC(N2CCN([C@H]3CCN(C(=O)c4cc(C(F)(F)F)cc(C(F)(F)F)c4)[C@H](Cc4ccccc4)C3)CC2)C1 (some centres unmarked) :: 7.94
O=C(c1cc(C(F)(F)F)cc(C(F)(F)F)c1)N1CC[C@H](N2CCCN(C3CCCN(Cc4ccccc4)C3)CC2)C[C@H]1Cc1ccccc1 (some centres unmarked) :: 251

Supply IC50 value. Item: O=C(c1cc(C(F)(F)F)cc(C(F)(F)F)c1)N1CC[C@H](N2CCN(C3CCCN(S(=O)(=O)c4c(Cl)nc5sccn45)C3)CC2)C[C@H]1Cc1ccccc1 (some centres unmarked)
15.8

Tell me measured IC50 for O=C(C(O)c1ccccc1)N1CCCC(N2CCN([C@H]3CCN(C(=O)c4cc(C(F)(F)F)cc(C(F)(F)F)c4)[C@H](Cc4ccccc4)C3)CC2)C1 (some centres unmarked) please.
7.94

Retrieve IC50 measured for Cc1cc(C(=O)N2CCCC(N3CCN([C@H]4CCN(C(=O)c5cc(C(F)(F)F)cc(C(F)(F)F)c5)[C@H](Cc5ccccc5)C4)CC3)C2)n(C)n1 (some centres unmarked) and print it.
7.94

* * *

- test target: NK3 (Homo sapiens, UniProt P29371)
- Sequence (P29371 whole entry): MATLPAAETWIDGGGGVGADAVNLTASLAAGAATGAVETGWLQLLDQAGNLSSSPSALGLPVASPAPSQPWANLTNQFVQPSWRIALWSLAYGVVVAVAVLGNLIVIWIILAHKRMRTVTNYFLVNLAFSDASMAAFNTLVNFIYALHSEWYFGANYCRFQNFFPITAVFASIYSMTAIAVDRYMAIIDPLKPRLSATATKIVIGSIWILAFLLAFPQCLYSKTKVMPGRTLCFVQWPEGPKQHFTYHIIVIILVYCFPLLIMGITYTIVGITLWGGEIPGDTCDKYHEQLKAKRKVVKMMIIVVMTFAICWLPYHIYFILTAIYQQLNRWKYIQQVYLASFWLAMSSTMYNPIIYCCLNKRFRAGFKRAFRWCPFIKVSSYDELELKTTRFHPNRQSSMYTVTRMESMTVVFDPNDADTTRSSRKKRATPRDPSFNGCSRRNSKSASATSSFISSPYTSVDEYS
- experiment notes: Signal transduction (ST), intracellular Ca++ (FLIPR), NK3
- Format: cell-based
- condition context: read-out: pIC50 NK3 (converted)
# maps each entry to its IC50
Express it in nM; write the number only.

Before answering, review these 5 worked examples.
O=C(c1sccc1CO)N1CCCC(N2CCN([C@H]3CCN(C(=O)c4cc(C(F)(F)F)cc(C(F)(F)F)c4)[C@H](Cc4ccccc4)C3)CC2)C1 (stereo partly drawn) :: 2510
O=C(c1cc(C(F)(F)F)cc(C(F)(F)F)c1)N1CC[C@H](N2CCN(C3CCCN(S(=O)(=O)c4ccc5nonc5c4)C3)CC2)C[C@H]1Cc1ccccc1 (stereo partly drawn) :: 398
O=C(C(O)c1ccccc1)N1CCCC(N2CCN([C@H]3CCN(C(=O)c4cc(C(F)(F)F)cc(C(F)(F)F)c4)[C@H](Cc4ccccc4)C3)CC2)C1 (stereo partly drawn) :: 2000
COc1ccc(S(=O)(=O)N2CCCC(N3CCN([C@H]4CCN(C(=O)c5cc(C(F)(F)F)cc(C(F)(F)F)c5)[C@H](Cc5ccccc5)C4)CC3)C2)cc1F (stereo partly drawn) :: 1000
O=C(c1ccc(CCO)s1)N1CCCC(N2CCN(C3CCN(C(=O)c4cc(C(F)(F)F)cc(C(F)(F)F)c4)C(Cc4ccccc4)C3)CC2)C1 (stereo not drawn) :: 2000

Pending compound:
Given O=C(c1c(Cl)cccc1Cl)N1CCCC(N2CCN([C@H]3CCN(C(=O)c4cc(C(F)(F)F)cc(C(F)(F)F)c4)[C@H](Cc4ccccc4)C3)CC2)C1 (stereo partly drawn) , respond with its IC50.
794

* * *

- test target: UniProt:P25103
- experiment notes: Signal transduction (ST), intracellular Ca++ (FLIPR), NK1 antagonism
- Type: cell-based
- condition context: read-out: pIC50 NK1 (converted)
- Description: This test evaluates in vitro functional NK1 antagonistic activity. For the measurements of intracellular Ca^++ concentrations the cells were grown on 96-well (black wall/transparent bottom) plates from Costar for 2 days until they reached confluence. […] The cells were preincubated with a concentration range of antagonists for 20 min at RT and Ca^++-signals after addition of the agonists were measured in a Fluorescence Image Plate Reader (FLIPR from Molecular Devices, Crawley, England). […]
measure name: IC50
Give me the value, and tack the unit on after it.

State IC50 (UniProt:P25103) of O=C(c1cc(C(F)(F)F)cc(C(F)(F)F)c1)N1CC[C@H](N2CCN(C3CCCN(C(CO)c4ccsc4)C3)CC2)C[C@H]1Cc1ccccc1 (stereo partly drawn) .
20 nM

Fill in: IC50 on UniProt:P25103, entry O=C(c1cccnc1)N1CCCC(N2CCN([C@H]3CCN(C(=O)c4cc(C(F)(F)F)cc(C(F)(F)F)c4)[C@H](Cc4ccccc4)C3)CC2)C1 (stereo partly drawn)
20 nM

Specify the recorded IC50 for O=C(Nc1ccccc1F)N1CCCC(N2CCN([C@H]3CCN(C(=O)c4cc(C(F)(F)F)cc(C(F)(F)F)c4)[C@H](Cc4ccccc4)C3)CC2)C1 (stereo partly drawn) , system: UniProt:P25103.
10 nM

For UniProt:P25103, give the measured IC50 of the entry O=C(C1CCOC1)N1CCCC(N2CCCN(C3CCN(C(=O)c4cc(C(F)(F)F)cc(C(F)(F)F)c4)C(Cc4ccccc4)C3)CC2)C1 (single isomer, unassigned) [Compound 121]
126 nM

Quote UniProt:P25103 IC50 for entry O=C(c1cc(C(F)(F)F)cc(C(F)(F)F)c1)N1CC[C@@H](N2CCCN(C3CCCN(Cc4ccccc4)C3)CC2)C[C@H]1Cc1ccccc1 (stereo partly drawn) .
200 nM

Return reported IC50 for target or system UniProt:P25103, item Cc1c(S(=O)(=O)N2CCCC(N3CCN([C@H]4CCN(C(=O)c5cc(C(F)(F)F)cc(C(F)(F)F)c5)[C@H](Cc5ccccc5)C4)CC3)C2)cnn1-c1ccccc1 (stereo partly drawn) .
63.1 nM
